Values were extracted from paper PMC11325506.

- System: Mycobacterium tuberculosis, strain H37Ra
- method.description: Antimycobacterial activity against M. tuberculosis H37Ra (luminescence, dose-response)
- Assay type: cell-based
- condition.label: Mycobacterium tuberculosis, 168 h; H37Ra lux, luminescence at day 7, top concentration 64 μM
pIC50: −log10 of the molar value.
Quick reference: pIC50 of the listed items.
observation.type: pIC50

CSc1ccc(-c2c(NCc3ccccn3)c(=O)c2=O)cc1 : 5.34
Cc1ccc(-c2c(NCc3ccccn3)c(=O)c2=O)cc1 : 5.70
O=c1c(NCc2ccccn2)c(-c2ccc3c(c2)OCO3)c1=O : 4.70
Cc1ccc(-c2c(NCc3ccccn3)c(=O)c2=O)s1 : 5.53
O=c1c(NCc2ccccn2)c(-c2ccoc2)c1=O : 4.54
O=c1c(NCc2ccccn2)c(-c2ccc(O)cc2)c1=O : 4.66

----------
- System: Mycobacterium tuberculosis, strain H37Ra
- method.description: Antimycobacterial activity against M. tuberculosis H37Ra (luminescence, dose-response)
- Format: cell-based
- condition.label: Mycobacterium tuberculosis, 168 h; H37Ra lux, luminescence at day 7, top concentration 64 μM
Quick reference: IC50 of the listed items.
observation.type: IC50

CCCCOc1ccc(-c2c(NCc3ccccn3)c(=O)c2=O)c(F)c1F : > 64 µM
O=c1c(NCc2ccccn2)c(-c2ccc(OCc3ccc(F)cc3)cc2)c1=O : > 64 µM
CCCOc1ccc(-c2c(NCc3ccccn3)c(=O)c2=O)c(F)c1F : > 64 µM
O=c1c(NCc2ccccn2)c(-c2cccc3ccccc23)c1=O : > 64 µM
